Quick list: aptazyme ON/OFF ratio per entry.
B1: Pistol ribozyme (parent)
chain: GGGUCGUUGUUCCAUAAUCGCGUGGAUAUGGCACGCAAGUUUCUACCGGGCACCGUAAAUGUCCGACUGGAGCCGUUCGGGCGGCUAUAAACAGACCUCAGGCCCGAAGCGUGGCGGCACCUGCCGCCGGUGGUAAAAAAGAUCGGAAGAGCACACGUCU

# Variants of: B1
# EXPERIMENT: aptazyme ON/OFF ratio, guanine; higher = stronger switching; co-transcriptional cleavage with and without guanine

{"MUTANT_DESIGNATION": "U7G U8G U10C U11G C12A C13G", "aptazyme ON/OFF ratio": 1.16}
{"MUTANT_DESIGNATION": "U7C U8C G9U U10G C13G", "aptazyme ON/OFF ratio": 1.12}
{"MUTANT_DESIGNATION": "U7G U8C U10C U11G C12A", "aptazyme ON/OFF ratio": 1.24}
{"MUTANT_DESIGNATION": "U7G G9C U10C U11A C12U C13U", "aptazyme ON/OFF ratio": 1.32}
{"MUTANT_DESIGNATION": "G9A U10A U11C C12A C13A", "aptazyme ON/OFF ratio": 1.38}
{"MUTANT_DESIGNATION": "U8A G9U U10G U11A C13A", "aptazyme ON/OFF ratio": 1.02}
{"MUTANT_DESIGNATION": "U7G U8G G9C U10G U11C C12A", "aptazyme ON/OFF ratio": 1.25}
{"MUTANT_DESIGNATION": "U7C U8A G9C U10A U11C C12U C13G", "aptazyme ON/OFF ratio": 1.1}
{"MUTANT_DESIGNATION": "U7C U8C G9C U10G U11C C12G", "aptazyme ON/OFF ratio": 1.14}
{"MUTANT_DESIGNATION": "U8A G9A U10C U11C", "aptazyme ON/OFF ratio": 1.04}
{"MUTANT_DESIGNATION": "U7C U8G G9C U10A U11G C12G C13G", "aptazyme ON/OFF ratio": 1.16}
{"MUTANT_DESIGNATION": "U8C U10C U11G C12A C13A", "aptazyme ON/OFF ratio": 1.17}
{"MUTANT_DESIGNATION": "U7A U8C G9A U11C C12A C13A", "aptazyme ON/OFF ratio": 1.19}
{"MUTANT_DESIGNATION": "U7C U8A G9A U10C U11G C12A C13G", "aptazyme ON/OFF ratio": 1.16}
{"MUTANT_DESIGNATION": "U7C U8G U10C", "aptazyme ON/OFF ratio": 1.34}
{"MUTANT_DESIGNATION": "U7C U8A G9C U10A U11A C12G C13U", "aptazyme ON/OFF ratio": 1.16}
{"MUTANT_DESIGNATION": "U7C G9A U11G C13A", "aptazyme ON/OFF ratio": 1.46}
{"MUTANT_DESIGNATION": "U7G G9C U10A U11G C12U", "aptazyme ON/OFF ratio": 1.43}
{"MUTANT_DESIGNATION": "U7G U8G G9C U10A U11A C12G", "aptazyme ON/OFF ratio": 1.07}
{"MUTANT_DESIGNATION": "U7A U11A C12A C13A", "aptazyme ON/OFF ratio": 1.3}
{"MUTANT_DESIGNATION": "U7A U8G G9U U10C U11A C12U C13G", "aptazyme ON/OFF ratio": 1.32}
{"MUTANT_DESIGNATION": "U7G U8A U10G U11C C12G", "aptazyme ON/OFF ratio": 1.02}
